target: SMYD3 (Homo sapiens (Human), UniProt Q9H7B4)
method summary: SMYD3 biochemical assay (SPA, 3H-SAM methylation of MEKK2 protein substrate)
stated conditions: IC50 values are an average of n = 1 to n = 50; read-out: SMYD3 Biochem IC50*
Listing: pIC50 of selected compounds
# reply with the number alone; pIC50 is -log10 of concentration in mol/L

CCc1cc(C(=O)N[C@@H]2CCN(S(=O)(=O)c3ccc(C(C)(C)N)cc3)[C@@H](C)C2)no1	6.80
CN(C)C(C)(C)c1ccc(S(=O)(=O)N2[C@@H]3CC[C@H]2C[C@@H](NC(=O)c2cc(C4CC4)on2)C3)cc1	6.80
O=C(N[C@H]1C[C@H]2CC[C@@H](C1)N2S(=O)(=O)[C@H]1CCCN(CCO)C1)c1cc(C2CC2)on1	6.81
CN1CC2CCC(C1)N2S(=O)(=O)N1[C@@H]2CC[C@H]1C[C@@H](NC(=O)c1cc(C3CC3)on1)C2	6.97
C[C@H]1CN(S(=O)(=O)N2CC[C@H](NC(=O)c3cc(C4CC4)on3)C[C@@H]2C)[C@@H](C)CN1	6.72
CN1CCC[C@H]1CS(=O)(=O)N1[C@@H]2CC[C@H]1C[C@@H](NC(=O)c1cc(C3CC3)on1)C2	6.92
CC(C)Cc1cc(C(=O)N[C@H]2C[C@H]3CC[C@@H](C2)N3S(=O)(=O)CC2CCN(C)CC2)no1	6.69
CN1CCCC[C@H]1CS(=O)(=O)N1[C@@H]2CC[C@H]1C[C@@H](NC(=O)c1cc(C3CC3)on1)C2	6.98
CC[C@H]1CNCCN1S(=O)(=O)N1CC[C@H](NC(=O)c2cc(C3CC3)on2)C[C@@H]1C	6.85
C[C@H]1C[C@@H](NC(=O)c2cc(C3CC3)on2)CCN1S(=O)(=O)N1CCN(C)C[C@@H]1C	6.92

Ask | Dear colleague, please send me the reported pIC50 for CN(CCN1CCOCC1)C1CCN(S(=O)(=O)N2[C@@H]3CC[C@H]2C[C@@H](NC(=O)c2cc(C4CC4)on2)C3)CC1 when you can.
Reply | 7.02

Ask | Quickly give me recorded pIC50 for NCc1ccc(S(=O)(=O)N2[C@@H]3CC[C@H]2C[C@@H](NC(=O)c2cc(C4CC4)on2)C3)c(Cl)c1
Reply | 7.05

Ask | Identify pIC50 associated with the compound O=C(N[C@H]1C[C@H]2CC[C@@H](C1)N2S(=O)(=O)C[C@H]1CCCCN1)c1cc(C2CC2)on1
Reply | 7.04

###

target: SMYD3 (Homo sapiens (Human), UniProt Q9H7B4)
method summary: SMYD3 biochemical assay (SPA, 3H-SAM methylation of MEKK2 protein substrate)
stated conditions: average of n = 1 to n = 50; read-out: SMYD3 Biochem IC50
parameter measured: IC50 (µM)
Quick note: give the figure in µM, leave out the unit.

O=C(NC1C[C@H]2CCC[C@H](C1)N2S(=O)(=O)c1ccc(Cl)cn1)c1cc(C2CC2)on1 (some centres unmarked) [compound 733]	0.442
C[C@H]1C[C@@H](NC(=O)c2cc(C3CC3)on2)CCN1S(=O)(=O)N(C)C1CCN(C)CC1 [compound 674]	0.108
COCC1CCCN1CCS(=O)(=O)N1[C@@H]2CC[C@H]1C[C@@H](NC(=O)c1cc(C3CC3)on1)C2 (some centres unmarked) [compound 762]	0.77

Attention now shifts to the item below.
Ask | For the compound C[C@@H]1CN(S(=O)(=O)N2CC[C@H](NC(=O)c3cc(C4CC4)on3)C[C@@H]2C)[C@@H](C)CN1C [compound 712] , give its reported IC50.
Reply | 0.275
